# Target Or System: recombinant cynomolgus BCMA Fc(kih) (cynomolgus, UniProt A0A2K5UD97 4-51)
# Sequence (A0A2K5UD97 entry or part of it): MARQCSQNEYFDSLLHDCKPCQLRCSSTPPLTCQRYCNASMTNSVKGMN
# Protocol Summary: ratio of SPR KD values (KD cynomolgus BCMA / KD human BCMA), reference human BCMA Fc(kih)
Measurement Name: Affinity cyno/hu gap (fold)
Give just the numeric value; fold need not be written.

{"Binder": "Mab 33 IgG (antibody, V domains shown) VH: EVQLLESGGGLVQPGGSLRLSCAASGFTFYTNAMGWVRQAPGKGLEWVSAINRFGGSTYYADSVKGRFTISRDNSKNTLYLQMNSLRAEDTAVYYCAKVLGWFDYWGQGTLVTVSS VL: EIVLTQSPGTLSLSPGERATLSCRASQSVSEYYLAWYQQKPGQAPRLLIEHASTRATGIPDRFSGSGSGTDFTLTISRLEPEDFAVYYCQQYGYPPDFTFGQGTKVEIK", "Reported Result": 4.2}

Per the record, Mab 39 IgG (antibody, V domains shown) VH: EVQLLESGGGLVQPGGSLRLSCAASGFTFTQNAMGWVRQAPGKGLEWVSAISPTGFSTYYADSVKGRFTISRDNSKNTLYLQMNSLRAEDTAVYYCAKVLGWFDYWGQGTLVTVSS VL: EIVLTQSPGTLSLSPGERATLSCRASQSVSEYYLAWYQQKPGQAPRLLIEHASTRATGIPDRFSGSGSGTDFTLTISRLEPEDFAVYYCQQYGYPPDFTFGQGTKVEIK has Affinity cyno/hu gap of 14

Mab 42 IgG (antibody, V domains shown, also called antibody 42; clone 42) VH: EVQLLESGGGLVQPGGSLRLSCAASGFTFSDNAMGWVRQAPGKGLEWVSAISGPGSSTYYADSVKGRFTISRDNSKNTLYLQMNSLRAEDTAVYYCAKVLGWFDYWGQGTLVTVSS VL: EIVLTQSPGTLSLSPGERATLSCRASQSVSDEYLSWYQQKPGQAPRLLIHSASTRATGIPDRFSGSGSGTDFTLAISRLEPEDFAVYYCQQYGYPPDFTFGQGTKVEIK yielded Affinity cyno/hu gap of 1.7
